# measurementTarget: hMC1-R (human, UniProt Q01726)
# Sequence (Q01726 whole entry): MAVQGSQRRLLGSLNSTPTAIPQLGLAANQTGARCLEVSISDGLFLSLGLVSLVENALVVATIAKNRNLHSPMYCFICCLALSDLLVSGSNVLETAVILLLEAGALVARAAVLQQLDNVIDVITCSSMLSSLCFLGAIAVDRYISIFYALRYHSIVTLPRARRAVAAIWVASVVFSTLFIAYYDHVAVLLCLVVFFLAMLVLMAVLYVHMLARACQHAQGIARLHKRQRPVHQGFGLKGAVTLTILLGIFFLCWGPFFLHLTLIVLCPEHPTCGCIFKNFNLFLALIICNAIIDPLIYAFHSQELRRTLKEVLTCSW
# procedureDetails: competition
Bridges are numbered along the chain shown (N, C = ends). Where no end group is shown, it is not given here. [ ]: non-standard residue; d: D form. Bip = N[C@@H](Cc1ccc(-c2ccccc2)cc1)C(=O)O; 2Nal = N[C@@H](Cc1ccc2ccccc2c1)C(=O)O; Nle = CCCC[C@H](N)C(=O)O; Bal = not defined here; βAla = NCCC(=O)O
readoutKind: pKi
Would you please state pKi, meaning minus log10 of the concentration in mol/L, as a bare number?

Use the examples below as a reference point.
| binder | pKi |
| --- | --- |
| Ac-C[dA]H[dF]R[2Nal]AC-NH2 (disulfide 1-8 (inferred)) [Ac-c(Cys-D-Ala-His-D-Phe-Arg-2-Nal-Ala-Cys)-NH2] | 6.88 |
| [dF]CH[dF]R[Bip][βAla][dC]T-NH2 (disulfide 2-8 (inferred)) [D-Phe-c(Cys-His-D-Phe-Arg-Bip-β-Ala-D-Cys)-Thr-NH2] | 8.24 |
| Ac-[Nle]D[dA]H[dF]R[Bal]AK-NH2 (lactam 2-9; reading uncertain) [Ac-Nle-c(Asp-D-Ala-His-D-Phe-Arg-Bal-Ala-Lys)-NH2] | 8.31 |
| CEHXRXAC (cyclic, D-residues) [Ac-c(Cys-Glu-His-D-Phe-Arg-2-Nal-Ala-Cys)-NH2] | 6.58 |

API: the following record is the query input.
Data request: So what's the measured pKi for this one? Ac-[Nle]D[dA]H[dF]RWK-NH2 (lactam 2-8; SMILES CCCC[C@H](NC(C)=O)C(=O)N[C@H]1CC(=O)NCCCC[C@@H](C(N)=O)NC(=O)[C@H](Cc2c[nH]c3ccccc23)NC(=O)[C@H](CCCNC(=N)N)NC(=O)[C@@H](Cc2ccccc2)NC(=O)[C@H](Cc2c[nH]cn2)NC(=O)[C@@H](C)NC1=O) [Ac-Nle-c(Asp-D-Ala-His-D-Phe-Arg-Trp-Lys)-NH2]
Data returned: 9.18

Data origin: patent US20170240595
